tested_target: human cannabinoid receptor type 1 (CB1) (human, UniProt P21554 1-472)
Sequence (P21554 whole entry): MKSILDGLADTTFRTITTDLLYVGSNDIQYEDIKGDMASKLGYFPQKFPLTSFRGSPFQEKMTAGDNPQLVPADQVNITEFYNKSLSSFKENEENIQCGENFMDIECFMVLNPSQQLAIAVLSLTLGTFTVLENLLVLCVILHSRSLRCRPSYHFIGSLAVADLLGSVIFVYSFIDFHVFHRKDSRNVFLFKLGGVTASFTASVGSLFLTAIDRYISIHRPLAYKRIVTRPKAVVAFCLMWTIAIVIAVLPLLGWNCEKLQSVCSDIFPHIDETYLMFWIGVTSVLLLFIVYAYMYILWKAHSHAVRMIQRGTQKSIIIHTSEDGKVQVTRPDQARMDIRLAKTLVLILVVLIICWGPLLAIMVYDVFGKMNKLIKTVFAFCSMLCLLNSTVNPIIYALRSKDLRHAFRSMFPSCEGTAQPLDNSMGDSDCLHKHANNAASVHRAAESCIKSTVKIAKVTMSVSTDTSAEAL
assay_remarks: cell-based or functional assay
Parameter: cAMP EC50 (nM) Data Set 2. Scope: all listed entries.
Please give a number only; it is taken to be in nM.

Would you please look over these solved cases?
INSERT INTO assay_data (binder, recorded_number) VALUES
  ('M8 mouse anti-huCB-1 antibody (antibody, V domains shown) VH: QVQLQQPGAELVKPGASVKLSCKASGYTFTDYWMHWVKQRPGHGLEWIGEIYPSSGRANYNGNFKRKATLTVDKSSSTAYMQLSSLTSEDSAVYYCARSRGNYLPYWGHGTPVTVSA VL: QIVLTQSPAIMSASLGERVTMTCTAGSTVSSSYLHWYQQRPGSSPKLWIYGTSNLASGVPARFSGSGSGTSYSLTISSMEAEDAATYYCHQYHRSPPTFGGGTKLEIK', 190),
  ('M6 mouse anti-huCB-1 antibody (antibody, V domains shown) VH: EVQLQQSGPELVKPGASVKISCKASGYTFTDYNLHWVKHGKSLEWIGYIYPYDGDTGYKQKFKGKATLTADKSSSTAYMELRSLTCEDSAVYYCARGYGNSWGAYWGQGTLVTVSA VL: EIVLTQSPTTMAASPGEKITITCSATSSISSNYLHWYQQKPGFSPKLLIYRTSNLASGVPARFSGSGSGTSYSLTIGTMEAEDVATYYCQQGSSIPYTFGGGTKLEIK', 290);

In the following, a different binder is considered.
Enquiry: Query: cAMP EC50 (nM) Data Set 2; subject: M5 mouse anti-huCB-1 antibody (antibody, V domains shown, The humanized M5-H1 and M5-H2 carry the CDRs of the un-numbered VL, so that one may be the functional light chain) VH: QVHLQQSGAELVRPGSSVKISCKASGYEFSYYWMNWVKQRPGQGHEWIGQIYPGDGDTNYNGKFKGKATLTADKSSSTAYMQLSSLTSEDSAVYFCARGREAAWFAYWGQGTLVTVSA VL: DIVLAQSPASLAVSLGQRATISCRASQSVSSFRYSYLHWYQQKPGQPPRLLIKYASNLESGVPARFSGSGSGTDFTLNIHPVEEEDTATYFCQHSWEIPFTFGSGTKLEIKR
Return: 170
